# System: human APOE RNA
# Experiment notes: Dose-dependent inhibition of human APOE RNA in HepG2 cells, electroporation, 50,000 cells per well, RT-PCR normalized to GAPDH (Example 4, Tables 8-10)
# Format: cell-based
# Measurement setup: 1,280 nM; HepG2, electroporation, 16-hour treatment
Strand notation (5' to 3'): a small letter for the sugar, then the base; units joined by * are phosphorothioate-linked, units joined directly phosphodiester-linked; [ ] holds rarer units or linkages, { } end groups; capitals alone tell only the bases. [ms] = mesyl phosphoramidate linkage; e = 2'-O-(2-methoxyethyl) (MOE); k = constrained ethyl (cEt); [5mC] = 5-methylcytosine; d = 2'-deoxy (DNA)
Listed here are substances together with their documented APOE RNA (% UTC).
Enter your answer as a number in % UTC; do not include the unit.

// returns reported APOE RNA (% UTC) for input 1757541: mixed MOE/cEt gapmer TTGGTGAATCTTTATTAA, sugar eeeekddddddddeeeee, linkages soossssssssssooss (eT*eTeGeG*kT*dG*dA*dA*dT*d[5mC]*dT*dT*dT*eAeTeT*eA*eA) [compound 1757541]
60

Any idea what its APOE RNA (% UTC) is? The substance is 1757561: mixed MOE/cEt gapmer TTGGTGAATCTTTATTAA, sugar eeekkddddddddkeeee, linkages soossssssssssooss (eT*eTeGkG*kT*dG*dA*dA*dT*d[5mC]*dT*dT*dT*kAeTeT*eA*eA) [compound 1757561]
45

Find the recorded APOE RNA (% UTC) belonging to Aes^mCeoTeoTesGesGksTdsGdzAdzAdzTds^mCdsTdsTdsTdsAdzTksTksAesAe (eA*e[5mC]eTeT*eG*kG*dT*dG[ms]dA[ms]dA[ms]dT*d[5mC]*dT*dT*dT*dA[ms]kT*kT*eA*eA) [Compound No. 1757576] and report it.
45

Data request, read-out APOE RNA (% UTC), for Compound No. 1517891: comparator of WO 2022/066956; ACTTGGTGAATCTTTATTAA, sugar eeeeeddddddddddeeeee, linkages sooosssssssssssooss (MOE gapmer, mixed PS/PO linkages, chemistry not fully specified) [reference compound]
36

====

Some substances, each annotated with its measured APOE RNA (% UTC).
# Tested on: human APOE RNA
# Experiment notes: Dose-dependent inhibition of human APOE RNA in HepG2 cells, electroporation, 50,000 cells per well, RT-PCR normalized to GAPDH (Example 4, Tables 8-10)
# Type: cell-based
# Measurement setup: 5 nM; HepG2, electroporation, 24-hour treatment
Strand notation (5' to 3'): a small letter for the sugar, then the base; units joined by * are phosphorothioate-linked, units joined directly phosphodiester-linked; [ ] holds rarer units or linkages, { } end groups; capitals alone tell only the bases. [ms] = mesyl phosphoramidate linkage; k = constrained ethyl (cEt); [5mC] = 5-methylcytosine; d = 2'-deoxy (DNA)
The figure you give is taken to be in % UTC; do not add the unit.

Below are worked cases with known answers.
{"columns": ["Substance", "Reported endpoint", "Meas value"],
 "data": [
  ["1746802 (k[5mC]*dT[ms]dT[ms]dG[ms]kG*kT*dG[ms]dA[ms]dA[ms]dT*d[5mC]*dT*dT*dT*dA[ms]dT*kT*dA[ms]kA*kA; antisense) [Compound 1746802]", "APOE RNA (% UTC)", 76],
  ["1746800 (k[5mC]*dT[ms]kT*dG[ms]dG[ms]kT*dG[ms]dA[ms]dA[ms]dT*d[5mC]*dT*dT*dT*dA[ms]dT*kT*dA[ms]kA*kA; antisense) [Compound 1746800]", "APOE RNA (% UTC)", 108],
  ["1746807 (k[5mC]*kT*dT[ms]dG[ms]dG[ms]kT*dG[ms]dA[ms]dA[ms]dT*d[5mC]*dT*dT*dT*dA[ms]dT*dT[ms]kA*kA*kA; antisense) [Compound 1746807]", "APOE RNA (% UTC)", 119],
  ["1746789 (k[5mC]*dT[ms]kT*dG[ms]kG*dT[ms]dG[ms]dA[ms]dA[ms]dT*d[5mC]*dT*dT*dT*dA[ms]dT*kT*kA*dA[ms]kA; antisense) [Compound 1746789]", "APOE RNA (% UTC)", 98],
  ["1746811 (k[5mC]*dT[ms]dT[ms]kG*kG*dT[ms]dG[ms]dA[ms]dA[ms]dT*d[5mC]*dT*dT*dT*dA[ms]dT*dT[ms]kA*kA*kA; antisense) [Compound 1746811]", "APOE RNA (% UTC)", 99]
]}

Any idea what its APOE RNA (% UTC) is? The substance is 1746803 (k[5mC]*dT[ms]dT[ms]kG*dG[ms]kT*dG[ms]dA[ms]dA[ms]dT*d[5mC]*dT*dT*dT*dA[ms]dT*kT*dA[ms]kA*kA; antisense) [Compound 1746803]
93

# query: APOE RNA (% UTC) of entry 1746795 (k[5mC]*kT*dT[ms]kG*dG[ms]dT[ms]dG[ms]dA[ms]dA[ms]dT*d[5mC]*dT*dT*dT*dA[ms]dT*kT*dA[ms]kA*kA; antisense) [Compound 1746795]
119

Consider the substance shown here: 1746804 (k[5mC]*kT*kT*dG[ms]dG[ms]dT[ms]dG[ms]dA[ms]dA[ms]dT*d[5mC]*dT*dT*dT*dA[ms]dT*dT[ms]kA*kA*kA; antisense) [Compound 1746804] What is its recorded APOE RNA (% UTC)?
89

Which APOE RNA (% UTC) is reported for this substance? 1746813 (k[5mC]*dT[ms]dT[ms]kG*dG[ms]kT*dG[ms]dA[ms]dA[ms]dT*d[5mC]*dT*dT*dT*dA[ms]dT*dT[ms]kA*kA*kA; antisense) [Compound 1746813]
137

APOE RNA (% UTC) lookup needed for 1747052 (k[5mC]*dT[ms]kT*kG*dG[ms]kT*dG[ms]dA[ms]dA[ms]dT*d[5mC]*dT*dT*dT*dA[ms]dT*kT*dA[ms]dA[ms]kA; antisense) [Compound 1747052] , thanks.
150

Reported APOE RNA (% UTC), substance 1746810 (k[5mC]*dT[ms]kT*dG[ms]dG[ms]kT*dG[ms]dA[ms]dA[ms]dT*d[5mC]*dT*dT*dT*dA[ms]dT*dT[ms]kA*kA*kA; antisense) [Compound 1746810] : ____
109

What does the record list as APOE RNA (% UTC) for 1747051 (k[5mC]*kT*dT[ms]kG*dG[ms]kT*dG[ms]dA[ms]dA[ms]dT*d[5mC]*dT*dT*dT*dA[ms]dT*kT*dA[ms]dA[ms]kA; antisense) [Compound 1747051] ?
111

FYI, the data here is from patent US20250353873A1.
